- test_target: Cytochrome P450 2C19 (Homo sapiens)
- assay_comment: Cytochrome panel assay with activity outcomes
- run_conditions: recombinant CYP, pro-luciferin dealkylation, luminescence, p450-cyp2c19; series mostly up to 57.1 µM
In all, about 16,000 compounds went through this assay and about 5,800 (36%) were called active. Not shown: some 23% with an inconclusive outcome. Calls follow the shape of the dose curve; as a rule, active = well fitted curve in the direction sought with a large enough effect; inconclusive = small, poorly fitted or top-dose-only effect, or effect the other way; inactive = no such curve, though single readings can be large or run the other way. This is one part of the list.
Possible outcomes: active, inactive

COc1ccccc1OCCn1cc(C(=O)c2ccco2)c2ccccc21 ... active
O=c1c(CCc2ccccc2)nc2cnc(Oc3cccc(Cl)c3)nc2n1C[C@H]1CCCO1 ... active
CCCc1nnc(SCC(=O)N2CCCCC2)n1CCCOC ... inactive
Cc1ccccc1OCCCn1c(=O)sc2ccccc21 ... active
